- Test system: NCI/ADR-RES ovarian
- Assay method text: NCI tumour cell line growth inhibition, 48 h
For each record, write down the corresponding GI50.

See these solved cases before continuing.
O=C(c1cccs1)c1c(C(F)(F)F)n([O-])c2ccc(C(F)(F)F)cc2[n+]1=O | 0.219 µM
Cc1cc2c(C)c3cc(C)c(N)cc3nc2cc1N | 4.92 µM
O=[N+]([O-])c1ccc(Sc2ncccn2)c([N+](=O)[O-])c1 | 6.55 µM
O/N=C1\CCc2cc(-c3nc(C4CCNCC4)[nH]c3-c3ccncc3)ccc21 | > 25 µM
Cc1ccc(-c2c(C#N)c(N)nc(N3CCOCC3)c2C#N)o1 | 33.6 µM

Quick one: give me GI50 for each item below, same order please.
1. Cc1cc(NC(=O)C2c3ccccc3C(=O)N(CC(C)C)C2c2cccs2)no1 (stereo not drawn)
2. O=C(Nc1n[nH]c2nc(-c3ccco3)c(Br)cc12)C1CC1
3. O=[N+]([O-])c1ccc(N/N=C\c2cc(Cl)ccc2O)nc1

1: 90.2 µM; 2: > 25 µM; 3: 0.388 µM
